Values were extracted from patent US20240228507A1.

Procedure Summary: Flash point
Type: physicochemical
Binary classification by Flash point, with -1 °C as an inclusive lower bound for True; all other cases are False.

As a guide, the following entries are already answered.
> print(dat)
                          molecule  class.label
1                       COC(C)(C)C        False
2  CC1CCC(=O)O1 (centres unmarked)         True
3          O=C1CC[C@H]2CO[C@@H]1O2         True

Now turn to the next molecule.
Query :: Evaluate CC1CCCO1 (centres unmarked) : Flash point at minimum -1 °C?
Result :: False

* * *

Procedure Summary: Kamlet-Abboud-Taft solvatochromic parameters (dye absorption spectra)
Assay type: physicochemical
Conditions: Table 1c
Property: Kamlet-Abboud-Taft β; scope: individual molecules
Give the figure by itself; no unit, no explanation.

Query :: Reported Kamlet-Abboud-Taft β, molecule C1COCCO1 [1,4-dioxane] : ____
Result :: 0.37

Query :: # query: Kamlet-Abboud-Taft β of entry CC1CCCO1 (stereo not shown) [Compound 2-MeTHF, 2-methyltetrahydrofuran]
Result :: 0.58

Query :: Tell me the measured Kamlet-Abboud-Taft β of CCC1OC[C@H]2O[C@@H]3OC(CC)O[C@@H]3[C@H]2O1 (stereo partly shown) [Compound 3] , please.
Result :: 0.63

Query :: Look at this molecule and give its reported Kamlet-Abboud-Taft β. CCCC1OC[C@H]2O[C@@H]3OC(CCC)O[C@@H]3[C@H]2O1 (stereo partly shown) [Compound 24]
Result :: 0.56

Query :: Given the entry CC(C)C1OC[C@H]2O[C@@H]3OC(C(C)C)O[C@@H]3[C@H]2O1 (stereo partly shown) [Compound 4] , report its measured Kamlet-Abboud-Taft β.
Result :: 0.51

Query :: Sample C1CCOC1 [THF, Tetrahydrofuran] — what was its Kamlet-Abboud-Taft β?
Result :: 0.55

Query :: Name the reported Kamlet-Abboud-Taft β value associated with the molecule C1CCCCC1 [Cyclohexane, cyclohexane]
Result :: 0

* * *

Procedure Summary: Kamlet-Abboud-Taft solvatochromic parameters (dye absorption spectra)
Format: physicochemical
Conditions: Table 1a
Source text: Determination of the Kamlet-Abboud-Taft parameters was based on the absorption spectrum of two dyes (N,N-diethyl-4-nitroaniline and 4-nitroaniline) in different solvents, that allow calculating corresponding values using known procedures (P. G. Jessop, D. A. Jessop, D. Fu and L. Phan, Green Chem., 2012, 14, 1245-1259).
Form field: Kamlet-Taft Parameters Π* (one value per entry).
Lab note: jot the number down without any unit.

Some entries whose results are on file:
> print(dat)
                                  molecule                    measure  observed.measurement
1  C[S+](C)[O-] [DMSO, dimethyl sulfoxide]  Kamlet-Taft Parameters Π*                  1.00
2     CCCCN1CCCC1=O [N-butylpyrrolidinone]  Kamlet-Taft Parameters Π*                  0.77
3                O=S1(=O)CCCC1 [Sulfolane]  Kamlet-Taft Parameters Π*                  0.98
4         O=C1CC[C@H]2CO[C@@H]1O2 [Cyrene]  Kamlet-Taft Parameters Π*                  0.93
5           O=C1OCCO1 [Ethylene carbonate]  Kamlet-Taft Parameters Π*                  0.99

Query :: For CC1CCC(=O)O1 (centres unmarked) [GVL, -valerolactone] , what is its reported Kamlet-Taft Parameters Π*?
Result :: 0.83

Query :: Would you mind telling me what Kamlet-Taft Parameters Π* value was observed for C1OC[C@H]2O[C@@H]3OCO[C@@H]3[C@H]2O1 [DFX, Diformylxylose] ?
Result :: 0.92

Query :: What value of Kamlet-Taft Parameters Π* has been recorded for this entry: C1COCCO1 [1,4-dioxane]
Result :: 0.55

* * *

Procedure Summary: Kamlet-Abboud-Taft solvatochromic parameters (dye absorption spectra)
Type: physicochemical
Conditions: Table 1a
Text: Determination of the Kamlet-Abboud-Taft parameters was based on the absorption spectrum of two dyes (N,N-diethyl-4-nitroaniline and 4-nitroaniline) in different solvents, that allow calculating corresponding values using known procedures (P. G. Jessop, D. A. Jessop, D. Fu and L. Phan, Green Chem., 2012, 14, 1245-1259).
Measure: Kamlet-Taft Parameters β
Please give the numeric answer without any surrounding text.

> print(dat)
                          compound                   measure  observed.measurement
1                    CCCCN1CCCC1=O  Kamlet-Taft Parameters β                  0.92
2                         C1COCCO1  Kamlet-Taft Parameters β                  0.37
3  CC1CCC(=O)O1 (stereo not shown)  Kamlet-Taft Parameters β                  0.60

Query :: Data request, read-out Kamlet-Taft Parameters β, for C[S+](C)[O-] [DMSO, dimethyl sulfoxide]
Result :: 0.74

Query :: I have this compound here, O=S1(=O)CCCC1 , and I need its recorded Kamlet-Taft Parameters β.
Result :: 0.39

Query :: Need Kamlet-Taft Parameters β, item O=C1CC[C@H]2CO[C@@H]1O2
Result :: 0.61

Query :: Could you share which Kamlet-Taft Parameters β value was measured for O=C1OCCO1 [Ethylene carbonate] ?
Result :: 0.32

* * *

# melting point listing for each entry below
Field format: number, assumed °C, no unit text.

Consider the worked cases shown below.
> print(dat)
                                   molecule        measure  unit.label  observed.measurement
1  CC(C)C1OC[C@H]2O[C@@H]3OC(C(C)C)O[C@@H]3[C@H]2O1 (some centres unmarked) [Compound 4]  melting point          °C                    31
2  CC1OC[C@H]2O[C@@H]3OC(C)O[C@@H]3[C@H]2O1 (some centres unmarked) [Compound 2]  melting point          °C                    60

Query :: # get_value(readout='melting point', item= CCCC1OC[C@H]2O[C@@H]3OC(CCC)O[C@@H]3[C@H]2O1 (some centres unmarked) [Compound 24] )
Result :: 24.5

Query :: Recorded melting point of C1OC[C@H]2O[C@@H]3OCO[C@@H]3[C@H]2O1 [Compound 1, Diformylxylose] , please.
Result :: 48

Query :: Quick one: melting point of CCC1OC[C@H]2O[C@@H]3OC(CC)O[C@@H]3[C@H]2O1 (some centres unmarked) [Compound 3] ?
Result :: 34

Query :: Which melting point reading was recorded for the molecule CC1(C)OC[C@H]2O[C@@H]3OC(C)(C)O[C@@H]3[C@H]2O1 [Compound 11] ?
Result :: 43

Query :: Would you kindly share the measured melting point for COC(=O)C1OC[C@H]2O[C@@H]3OC(C(=O)OC)O[C@@H]3[C@H]2O1 (some centres unmarked) [Compound 14] ?
Result :: 83

Query :: // lookup melting point for CC(C)(C)C1OC[C@H]2O[C@@H]3OC(C(C)(C)C)O[C@@H]3[C@H]2O1 (some centres unmarked) [Compound 5]
Result :: 120

* * *

Procedure Summary: Kamlet-Abboud-Taft solvatochromic parameters (dye absorption spectra)
Assay type: physicochemical
Conditions: Table 1c
Source text: Determination of the Kamlet-Abboud-Taft parameters was based on the absorption spectrum of two dyes (N,N-diethyl-4-nitroaniline and 4-nitroaniline) in different solvents, that allow calculating corresponding values using known procedures (P. G. Jessop, D. A. Jessop, D. Fu and L. Phan, Green Chem., 2012, 14, 1245-1259).
Label rule, in plain words: Kamlet-Abboud-Taft π of 0.6 and up is 1, under 0.6 is 0.

Field: example entries. Status: answers known.
> print(dat)
                                   compound  class.label
1  CCC1OC[C@H]2O[C@@H]3OC(CC)O[C@@H]3[C@H]2O1 (stereo partly shown)            1
2            C1CCOC1 [THF, Tetrahydrofuran]            0
3  CCCC1OC[C@H]2O[C@@H]3OC(CCC)O[C@@H]3[C@H]2O1 (stereo partly shown)            1
4  CC(C)C1OC[C@H]2O[C@@H]3OC(C(C)C)O[C@@H]3[C@H]2O1 (stereo partly shown)            1
5  CC1CCCO1 (stereo not shown) [Compound 2-MeTHF, 2-methyltetrahydrofuran]            0

Query :: Textbook exercise: given the entry C1COCCO1 , state whether its Kamlet-Abboud-Taft π is greater than or equal to 0.6.
Result :: 0

Query :: Given C1CCCCC1 , state whether its Kamlet-Abboud-Taft π is at least 0.6.
Result :: 0

* * *

Procedure Summary: Kamlet-Abboud-Taft solvatochromic parameters (dye absorption spectra)
Assay type: physicochemical
Conditions: Table 1c
Items are presented alongside their recorded Kamlet-Abboud-Taft α.

Use these answered entries as a reference point.
> print(dat)
                                   compound  observed.measurement
1                                  C1COCCO1                     0
2                                  C1CCCCC1                     0
3  CC1CCCO1 (stereo not shown) [Compound 2-MeTHF, 2-methyltetrahydrofuran]                     0

Query :: Which value of Kamlet-Abboud-Taft α has been reported for CCC1OC[C@H]2O[C@@H]3OC(CC)O[C@@H]3[C@H]2O1 (stereo partly shown) in the records?
Result :: 0

Query :: Fill in the blank: the reported Kamlet-Abboud-Taft α of C1CCOC1 [THF, Tetrahydrofuran] is ____.
Result :: 0

Query :: // lookup Kamlet-Abboud-Taft α for CCCC1OC[C@H]2O[C@@H]3OC(CCC)O[C@@H]3[C@H]2O1 (stereo partly shown)
Result :: 0

Query :: Recorded Kamlet-Abboud-Taft α of CC(C)C1OC[C@H]2O[C@@H]3OC(C(C)C)O[C@@H]3[C@H]2O1 (stereo partly shown) , please.
Result :: 0
